system: Rattus norvegicus; assay: Anxiolytic activity in ip dosed Wistar rat assessed as number of punished licks for 5 mins by conflict drinking test; type: functional; conditions: read-out: MED
minimal effective dose reference

| molecule | minimal effective dose |
| --- | --- |
| O=C1Nc2ccc(F)cc2C1CCCCN1CCN(c2ccc(F)cc2)CC1 (centres undefined) | > 10 mg/kg |
| CCC1(CCCCN2CCN(c3ccccc3OC)CC2)C(=O)N(Cc2ccccc2)c2ccccc21 (centres undefined) | > 20 mg/kg |
| CCC1(CCCCN2CCN(c3cccc(Cl)c3)CC2)C(=O)Nc2ccc(F)cc21 (centres undefined) | < 5 mg/kg |
| O=C1Nc2ccc(F)cc2C1CCCCN1CCN(c2ccccc2)CC1 (centres undefined) | < 10 mg/kg |
| CCC1(CCCCCN2CCN(c3ccc(Cl)cc3)CC2)C(=O)Nc2ccccc21 (centres undefined) | > 20 mg/kg |
| CCC1(CCCCN2CCN(c3cccc(Cl)c3)CC2)C(=O)Nc2ccc(Cl)cc21 (centres undefined) | > 20 mg/kg |
| CCC1(CCCCN2CCN(c3ccccc3)CC2)C(=O)N(C)c2ccccc21 (centres undefined) | 20 mg/kg |
| O=C1Nc2ccccc2C1CCCCN1CCN(c2ccc(Cl)cc2)CC1 (centres undefined) | < 2.5 mg/kg |
| CCC1(CCCCN2CCN(c3ccccc3OC)CC2)C(=O)Nc2ccccc21 (centres undefined) | 10 mg/kg |
| CCC1(CCCCN2CCc3ccccc3C2)C(=O)Nc2ccccc21 (centres undefined) | > 20 mg/kg |
| CCC1(CCCCN2CC=C(c3ccc(F)cc3)CC2)C(=O)Nc2ccccc21 (centres undefined) | 20 mg/kg |
| CCC1(CCCCN2CCN(c3ccccc3)CC2)C(=O)Nc2ccccc21 (centres undefined) | 10 mg/kg |
| CCC1(CCCCN2CCN(c3cccc(Cl)c3)CC2)C(=O)Nc2ccccc21 (centres undefined) | > 20 mg/kg |
| CCC1(CCCCN2CC=C(c3ccc(Cl)cc3)CC2)C(=O)Nc2ccccc21 (centres undefined) | > 20 mg/kg |
| CCC1(CCCCN2CCN(c3ccc(Cl)cc3)CC2)C(=O)Nc2ccccc21 (centres undefined) | 10 mg/kg |
| CCC1(CCCCN2CCN(c3ccc(OC)cc3)CC2)C(=O)Nc2ccccc21 (centres undefined) | > 20 mg/kg |
| CCC1(CCCCN2CCN(c3ccc(Cl)cc3)CC2)C(=O)Nc2ccc(Cl)cc21 (centres undefined) | > 20 mg/kg |
| CCC1(CCCCN2CCN(c3ccc(F)cc3)CC2)C(=O)Nc2ccccc21 (centres undefined) | 10 mg/kg |
| CCC1(CCCCN2CCN(c3ccc(C)c(Cl)c3)CC2)C(=O)Nc2ccccc21 (centres undefined) | > 20 mg/kg |
| CCC1(CCCCN2CCN(c3cccc(Cl)c3)CC2)C(=O)Nc2c(Cl)cc(Cl)cc21 (centres undefined) | > 20 mg/kg |
| CCC1(CCCCN2CCN(c3cccc(Cl)c3)CC2)C(=O)Nc2cc(F)ccc21 (centres undefined) | > 20 mg/kg |
| CCC1(CCCCN2CCN(c3ccc(F)cc3)CC2)C(=O)Nc2ccc(F)cc21 (centres undefined) | > 20 mg/kg |
| CCC1(CCCCN2CCN(c3cccc(Cl)c3)CC2)C(=O)Nc2cc(F)c(Cl)cc21 (centres undefined) | 20 mg/kg |
| CCC1(CCCCN2CCN(c3ccc(Cl)c(Cl)c3)CC2)C(=O)Nc2ccccc21 (centres undefined) | > 20 mg/kg |
| CCC1(CCCCN2CCN(c3ccccc3Cl)CC2)C(=O)Nc2ccccc21 (centres undefined) | > 20 mg/kg |
| CCC1(CCCCN2CCN(c3ccc(Cl)cc3)CC2)C(=O)Nc2c(Cl)cc(Cl)cc21 (centres undefined) | < 5 mg/kg |
| CCC1(CCCCN2CCN(c3ccc(Cl)cc3)CC2)C(=O)Nc2ccc(F)cc21 (centres undefined) | > 20 mg/kg |
| CCC1(CCCCCN2CCN(c3cccc(Cl)c3)CC2)C(=O)Nc2ccccc21 (centres undefined) | > 10 mg/kg |
| O=C1Nc2ccc(F)cc2C1CCCCN1CCN(c2cccc(Cl)c2)CC1 (centres undefined) | > 20 mg/kg |
| CCC1(CCCCN2CCC(c3ccc(F)cc3)CC2)C(=O)Nc2ccccc21 (centres undefined) | 20 mg/kg |
| CCC1(CCCCN2CCc3sccc3C2)C(=O)Nc2ccccc21 (centres undefined) | > 20 mg/kg |
| CCC1(CCCCN2CCN(c3ccc(Cl)cc3)CC2)C(=O)Nc2c(Cl)cc(F)cc21 (centres undefined) | > 20 mg/kg |
| CCC1(CCCCN2CCN(c3cccc(OC)c3)CC2)C(=O)Nc2ccccc21 (centres undefined) | > 20 mg/kg |
| CCC1(CCCN2CCN(c3cccc(Cl)c3)CC2)C(=O)Nc2ccccc21 (centres undefined) | > 20 mg/kg |
| CCC1(CCCCN2CCN(c3cccc(Cl)c3)CC2)C(=O)Nc2c(Cl)cc(F)cc21 (centres undefined) | > 20 mg/kg |
| O=C1Nc2ccccc2C1CCCCN1CCN(c2cccc(Cl)c2)CC1 (centres undefined) | < 5 mg/kg |
| CCC1(CCCCN2CCN(c3ccc(Cl)cc3)CC2)C(=O)Nc2cc(F)ccc21 (centres undefined) | > 20 mg/kg |
| CC(C)CC1(CCCCN2CCN(c3cccc(Cl)c3)CC2)C(=O)Nc2ccccc21 (centres undefined) | 10 mg/kg |
| CCC1(CCCCN2CCN(c3ccc(F)c(Cl)c3)CC2)C(=O)Nc2ccccc21 (centres undefined) | > 20 mg/kg |

* * *

target: 5-hydroxytryptamine receptor 1A (Rattus norvegicus); assay: Displacement of [3H]8-OH-DPAT from 5HT1A receptor in rat frontal cortex membrane at 0.1 uM; format: cell membranes

| compound | Activity / % |
| --- | --- |
| CCC1(CCCCN2CCN(c3ccc(F)c(Cl)c3)CC2)C(=O)Nc2ccccc21 (stereo not given) | 14 |
| CCC1(CCCCN2CC=C(c3ccc(F)cc3)CC2)C(=O)Nc2ccccc21 (stereo not given) | 19 |
| CCC1(CCCCN2CCN(c3ccc(Cl)c(Cl)c3)CC2)C(=O)Nc2ccccc21 (stereo not given) | 11 |
| CCC1(CCCCN2CCN(c3cccc(Cl)c3)CC2)C(=O)Nc2ccc(Cl)cc21 (stereo not given) | 18 |
| CCC1(CCCCCN2CCN(c3ccc(Cl)cc3)CC2)C(=O)Nc2ccccc21 (stereo not given) | 11 |
| CCC1(CCCCN2CCN(c3ccc(Cl)cc3)CC2)C(=O)Nc2c(Cl)cc(Cl)cc21 (stereo not given) | 5 |
| CC(C)CC1(CCCCN2CCN(c3cccc(Cl)c3)CC2)C(=O)Nc2ccccc21 (stereo not given) | 12 |
| O=C1Nc2ccc(F)cc2C1CCCCN1CCN(c2cccc(Cl)c2)CC1 (stereo not given) | 43 |
| CCC1(CCCCN2CCN(c3ccccc3)CC2)C(=O)Nc2ccccc21 (stereo not given) | 26 |
| CCC1(CCCCN2CCC(c3ccc(F)cc3)CC2)C(=O)Nc2ccccc21 (stereo not given) | 11 |

* * *

target: 5-hydroxytryptamine receptor 1A (Rattus norvegicus) (UniProt P19327); experiment: Displacement of [3H]8-OH-DPAT from 5HT1A receptor in rat frontal cortex membrane at 10 nM; format: cell membranes
Sequence (P19327 whole entry): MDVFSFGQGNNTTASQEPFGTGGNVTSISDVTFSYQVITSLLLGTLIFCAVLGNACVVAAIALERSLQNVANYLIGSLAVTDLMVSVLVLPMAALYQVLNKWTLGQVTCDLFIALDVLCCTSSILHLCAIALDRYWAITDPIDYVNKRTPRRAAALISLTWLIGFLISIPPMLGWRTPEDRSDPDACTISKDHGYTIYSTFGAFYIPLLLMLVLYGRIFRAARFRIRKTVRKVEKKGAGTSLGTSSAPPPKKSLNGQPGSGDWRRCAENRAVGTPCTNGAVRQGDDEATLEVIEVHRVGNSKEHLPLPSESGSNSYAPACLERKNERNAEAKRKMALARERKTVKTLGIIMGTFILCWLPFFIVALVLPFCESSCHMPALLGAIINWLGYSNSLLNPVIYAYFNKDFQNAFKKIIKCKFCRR
Activity reference
observedProperty: Activity (%)

| molecule | observedProperty | valueUnits | measValue |
| --- | --- | --- | --- |
| CCC1(CCCCN2CCN(c3ccc(F)cc3)CC2)C(=O)Nc2ccccc21 (stereo not given) | Activity | % | 12 |
| CCC1(CCCCN2CCN(c3ccc(Cl)c(Cl)c3)CC2)C(=O)Nc2ccccc21 (stereo not given) | Activity | % | 0 |
| CCC1(CCCCN2CCN(c3ccc(C)c(Cl)c3)CC2)C(=O)Nc2ccccc21 (stereo not given) | Activity | % | 0 |
| CCC1(CCCCN2CCN(c3ccccc3Cl)CC2)C(=O)Nc2ccccc21 (stereo not given) | Activity | % | 9 |
| CCC1(CCCCN2CCN(c3ccc(Cl)cc3)CC2)C(=O)Nc2ccccc21 (stereo not given) | Activity | % | 2 |
| CCC1(CCCN2CCN(c3cccc(Cl)c3)CC2)C(=O)Nc2ccccc21 (stereo not given) | Activity | % | 57 |
| CCC1(CCCCN2CCN(c3ccccc3OC)CC2)C(=O)Nc2ccccc21 (stereo not given) | Activity | % | 28 |
| CCC1(CCCCN2CCN(c3cccc(Cl)c3)CC2)C(=O)Nc2cc(F)ccc21 (stereo not given) | Activity | % | 11 |
| O=C1Nc2ccccc2C1CCCCN1CCN(c2cccc(Cl)c2)CC1 (stereo not given) | Activity | % | 9 |
| CCC1(CCCCCN2CCN(c3cccc(Cl)c3)CC2)C(=O)Nc2ccccc21 (stereo not given) | Activity | % | 12 |

* * *

Ki reference
target: UniProtKB P34969; assay: Displacement of [3H]LSD from human recombinant 5HT7 receptor expressed in CHO cells; assay type: cell-based; conditions: read-out: Ki
Sequence (P34969 whole entry): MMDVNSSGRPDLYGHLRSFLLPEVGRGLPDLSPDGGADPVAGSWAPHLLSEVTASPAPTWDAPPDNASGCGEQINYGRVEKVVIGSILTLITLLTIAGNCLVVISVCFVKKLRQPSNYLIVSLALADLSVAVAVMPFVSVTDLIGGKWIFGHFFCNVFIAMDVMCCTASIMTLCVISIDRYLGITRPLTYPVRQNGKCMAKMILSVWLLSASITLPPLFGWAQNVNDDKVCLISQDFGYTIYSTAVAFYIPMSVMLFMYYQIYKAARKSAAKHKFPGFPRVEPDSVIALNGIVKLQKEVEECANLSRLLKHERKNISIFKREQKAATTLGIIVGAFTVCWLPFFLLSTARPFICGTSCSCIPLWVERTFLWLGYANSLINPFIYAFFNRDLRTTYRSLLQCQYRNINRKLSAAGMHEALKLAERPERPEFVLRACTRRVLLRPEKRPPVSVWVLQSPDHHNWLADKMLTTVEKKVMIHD
observedProperty: Ki (nM)

| compound | valueUnits | measValue |
| --- | --- | --- |
| CCC1(CCCCN2CCN(c3cccc(Cl)c3)CC2)C(=O)Nc2ccc(F)cc21 (centres undefined) | nM | 2.11 |
| CCC1(CCCCN2CCN(c3cccc(OC)c3)CC2)C(=O)Nc2ccccc21 (centres undefined) | nM | 2.55 |
| CCC1(CCCCN2CCN(c3ccccc3)CC2)C(=O)N(C)c2ccccc21 (centres undefined) | nM | 33.4 |
| CCC1(CCCCN2CCN(c3ccccc3)CC2)C(=O)Nc2ccccc21 (centres undefined) | nM | 2.07 |
| O=C1Nc2ccc(F)cc2C1CCCCN1CCN(c2ccc(F)cc2)CC1 (centres undefined) | nM | 3.4 |
| CCC1(CCCCN2CCN(c3ccc(Cl)cc3)CC2)C(=O)Nc2ccc(F)cc21 (centres undefined) | nM | 2.81 |
| O=C1Nc2ccc(F)cc2C1CCCCN1CCN(c2cccc(Cl)c2)CC1 (centres undefined) | nM | 1.96 |
| CCC1(CCCCN2CCN(c3ccc(OC)cc3)CC2)C(=O)Nc2ccccc21 (centres undefined) | nM | 25.4 |
| CCC1(CCCCN2CCN(c3cccc(Cl)c3)CC2)C(=O)Nc2cc(F)c(Cl)cc21 (centres undefined) | nM | 9.07 |
